Test system: KB
run.description: Cytotoxicity against human KB cells after 72 hrs by sulforhodamine B and MTT assay
Format: functional, cell-based
measured.parameter: IC50 (nM)
Give the quantity in nM, number only.

compound.structure | IC50, nM
COc1cc2c(O[C@@H]3O[C@H](C)[C@H](O)[C@H](O)[C@H]3O)c3c(c(-c4ccc5c(c4)OCO5)c2cc1OC)C(=O)OC3 | 3050

--- query ---
Input line: Write down measured IC50 (KB) for this compound. COc1cc2c(O[C@@H]3O[C@H](C)[C@@H](OC(C)=O)[C@H](OC(C)=O)[C@H]3OC(C)=O)c3c(c(-c4ccc5c(c4)OCO5)c2cc1OC)C(=O)OC3
Output line: 440

----------
Tested on: HL-60
run.description: Cell cycle arrest in human HL60 cells assessed as accumulation at S phase at 1 uM after 24 hrs using propidium iodide stain by FACS-flow cytometry (reference value: 38.4%)
Format: functional
measured.parameter: Activity
Write the numeric value and append its unit.

compound.structure | target.system | meas.value
COc1cc2c(O[C@@H]3O[C@H](C)[C@H](O)[C@H](O)[C@H]3O)c3c(c(-c4ccc5c(c4)OCO5)c2cc1OC)C(=O)OC3 | HL-60 | 30%
COc1cc2c(O[C@@H]3O[C@@H]4CO[C@@H](C)O[C@H]4[C@H](O)[C@H]3O)c3c(c(-c4ccc5c(c4)OCO5)c2cc1OC)C(=O)OC3 | HL-60 | 23.4%
COc1cc2c(O[C@@H]3O[C@H](C)[C@@H](OC(C)=O)[C@H](OC(C)=O)[C@H]3OC(C)=O)c3c(c(-c4ccc5c(c4)OCO5)c2cc1OC)C(=O)OC3 | HL-60 | 36.3%
COc1cc2c(O[C@@H]3OC[C@@H](O)[C@H](O)[C@H]3O)c3c(c(-c4ccc5c(c4)OCO5)c2cc1OC)C(=O)OC3 | HL-60 | 35.5%

--- query ---
Input line: Supply recorded Activity for COc1cc2c(O[C@@H]3O[C@H](C)[C@@H](O)[C@H](O)[C@H]3O)c3c(c(-c4ccc5c(c4)OCO5)c2cc1OC)C(=O)OC3 here.
Output line: 38%

----------
System: KB
run.description: Cytotoxicity against vincristine-selected multi drug-resistant human KB cells after 72 hrs by sulforhodamine B and MTT assay
Format: functional, cell-based
pIC50: −log10 of the molar value.
# cutoff 6 applies to pIC50; >= gives true, < gives false

Reference set, count: 4
molecule | class.assignment
COc1cc2c(O[C@@H]3O[C@@H]4CO[C@@H](C)O[C@H]4[C@H](O)[C@H]3O)c3c(c(-c4ccc5c(c4)OCO5)c2cc1OC)C(=O)OC3 | true
CC[C@]1(O)C[C@H]2CN(CCc3c([nH]c4ccccc34)[C@@](C(=O)OC)(c3cc4c(cc3OC)N(C=O)[C@H]3[C@@](O)(C(=O)OC)[C@H](OC(C)=O)[C@]5(CC)C=CCN6CC[C@]43[C@@H]65)C2)C1 | false
COc1cc2c(O)c3c(c(-c4ccc5c(c4)OCO5)c2cc1OC)C(=O)OC3 | false
COc1cc2c(O[C@@H]3O[C@H](C)[C@@H](O)[C@H](O)[C@H]3O)c3c(c(-c4ccc5c(c4)OCO5)c2cc1OC)C(=O)OC3 | true

Now turn to the next molecule.
Input line: Quick check, pIC50 >= 6? COc1cc([C@@H]2c3cc4c(cc3[C@@H](O[C@@H]3O[C@@H]5CO[C@@H](C)O[C@H]5[C@H](O)[C@H]3O)[C@H]3COC(=O)[C@H]23)OCO4)cc(OC)c1O [ETOPOSIDE]
Output line: false
